- TARGET: EHD2 (Mus musculus)
- Construct: Mouse EHD2 full-length protein and all mutants were expressed as N-terminal His-fusions followed by a PreScission cleavage site; His (N, cleaved yes)
- Sequence (Q8BH64 whole entry, the tested form may be a part): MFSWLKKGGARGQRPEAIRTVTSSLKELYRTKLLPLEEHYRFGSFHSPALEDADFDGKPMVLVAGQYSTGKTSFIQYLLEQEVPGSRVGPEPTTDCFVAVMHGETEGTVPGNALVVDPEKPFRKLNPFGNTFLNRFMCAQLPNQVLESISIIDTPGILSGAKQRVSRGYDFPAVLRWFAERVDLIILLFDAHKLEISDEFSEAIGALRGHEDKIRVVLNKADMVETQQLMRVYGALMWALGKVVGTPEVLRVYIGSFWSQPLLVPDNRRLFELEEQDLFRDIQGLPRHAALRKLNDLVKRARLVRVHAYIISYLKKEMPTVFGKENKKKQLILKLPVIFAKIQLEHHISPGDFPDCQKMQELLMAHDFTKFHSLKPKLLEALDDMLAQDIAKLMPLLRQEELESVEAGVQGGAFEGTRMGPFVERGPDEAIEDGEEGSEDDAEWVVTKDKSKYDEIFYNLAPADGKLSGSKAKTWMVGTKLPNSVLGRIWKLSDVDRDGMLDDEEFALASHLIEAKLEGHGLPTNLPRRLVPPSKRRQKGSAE
- ASSAY NAME: ITC nucleotide binding to EHD2
- CONDITION DETAILS: ITC at 10° C., 20 mM HEPES (pH 7.5), 300 mM NaCl, 2 mM MgCl2; read-out: affinity to EHD2 determined by ITC
pKd: −log10 of the molar value.
OBSERVATION TYPE: pKd

INSERT INTO results (query_smiles, test_result) VALUES
  ('Nc1ncnc2c1ncn2[C@@H]1O[C@H](COP(=O)(O)OP(=O)(O)OP(O)(O)=S)[C@@H](O)[C@H]1O', 4.89);
